- Test system: BT-20
- runDescription: Cytotoxicity against human BT20 cells assessed as reduction in cell viability measured after 72 hrs by MTS assay
- Type: functional, cell-based
- cond: BT-20, 72 h
measure: pIC50
Notebook: values listed as pIC50 are -log10 of the concentration (mol/L).

Challenge: Report pIC50 for "NC(=O)CC[C@H](NC(=O)[C@H](Cc1nn[nH]n1)NC(=O)[C@H](Cc1ccc2ccccc2c1)NC(=O)c1cc2cc(Cl)ccc2[nH]1)C(=O)Nc1ccc(OC(F)(F)F)cc1" please.
Response given: 4.53

====

- runDescription: Drug uptake in human SW480 cells assessed as cell-bound level per million cells at 25 uM measured after 3 hrs by HPLC-MS analysis
- Format: ADME, cell-based
- cond: sw480, 3 h
measure: Drug uptake
# output: number + unit

Challenge: Report Drug uptake for "CCOC(=O)CC[C@H](NC(=O)[C@H](Cc1nn[nH]n1)NC(=O)[C@H](Cc1ccc2ccccc2c1)NC(=O)c1cc2cc(Cl)ccc2[nH]1)C(=O)Nc1ccc(OC(F)(F)F)cc1" please.
Response given: 1.4 nmol/million cells
